# measurement-target: T1, recombinant human c-Met (human, UniProt P08581 25-932, limits assumed)
# T1 construct: Soluble recombinant protein: immobilised on the CM5 chip in Biacore, in solution in the equilibrium titration; The precursor is cleaved into disulfide-linked alpha and beta subunits; also called Hepatocyte Growth Factor Receptor
# T1 sequence (P08581 25-932 limits assumed): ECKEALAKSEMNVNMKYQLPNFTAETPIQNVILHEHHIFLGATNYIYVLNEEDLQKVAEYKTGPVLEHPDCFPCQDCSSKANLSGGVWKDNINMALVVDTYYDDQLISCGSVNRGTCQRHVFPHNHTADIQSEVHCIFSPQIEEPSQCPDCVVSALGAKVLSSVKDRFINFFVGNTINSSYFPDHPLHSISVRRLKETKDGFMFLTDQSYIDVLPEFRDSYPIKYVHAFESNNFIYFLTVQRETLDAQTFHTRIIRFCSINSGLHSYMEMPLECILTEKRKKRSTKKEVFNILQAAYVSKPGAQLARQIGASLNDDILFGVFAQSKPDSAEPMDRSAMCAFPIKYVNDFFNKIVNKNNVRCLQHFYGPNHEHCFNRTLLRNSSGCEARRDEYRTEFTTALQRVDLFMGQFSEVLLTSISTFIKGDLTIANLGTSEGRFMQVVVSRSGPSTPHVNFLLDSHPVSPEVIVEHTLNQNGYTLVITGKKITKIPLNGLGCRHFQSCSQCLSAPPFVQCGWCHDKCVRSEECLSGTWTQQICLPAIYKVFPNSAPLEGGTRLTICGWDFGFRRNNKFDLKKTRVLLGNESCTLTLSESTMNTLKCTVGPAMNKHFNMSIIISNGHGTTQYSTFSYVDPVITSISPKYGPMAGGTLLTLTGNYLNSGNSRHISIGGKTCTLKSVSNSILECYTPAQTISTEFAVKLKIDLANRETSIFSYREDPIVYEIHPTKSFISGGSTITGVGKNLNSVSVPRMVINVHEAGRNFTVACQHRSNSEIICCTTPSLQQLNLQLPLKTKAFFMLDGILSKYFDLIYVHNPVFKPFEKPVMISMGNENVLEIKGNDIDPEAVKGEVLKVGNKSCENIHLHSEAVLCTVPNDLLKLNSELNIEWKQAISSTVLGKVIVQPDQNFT
# protocol-summary: SPR (BIAcore), c-Met amine-coupled on CM5 chip, Fab 16-500 nM as analyte
Kd for assorted binders

binder | Kd (nM)
04690 (parental anti-cMet Fab antibody) (Fab, V domains shown, carries two C-terminal tags (FLAG and 6xHis)) VH: QVQLQQSGPGLVKPSQTLSLTCAISGDSVSSNSAAWGWIRQSPGRGLEWLGRIYYRSKWVNDYAVSVKSRITINPDTSKNQFSLQLNSVTPEDTAVYYCARQGAVYPGPYGFDVWGQGTLVTVSS VL: DIELTQPPSVSVAPGQTARISCSGDKLGSYFVYWYQQKPGQAPVLVIYDDDNRPSGIPERFSGSNSGNTATLTISGTQAEDEADYYCQSFGISNFYVFGGGTKLTVLG | 66
04682 (parental anti-cMet Fab antibody) (Fab, V domains shown, carries two C-terminal tags (FLAG and 6xHis)) VH: QVQLVQSGAEVKKPGESLKISCKGSGYSFTNYGIAWVRQMPGKGLEWMGIIYPSDSYTNYSPSFQGQVTISADKSISTAYLQWSSLKASDTAMYYCARMSYDYQHQAPSMDSWGQGTLVTVSS VL: DIVLTQPPSVSGAPGQRVTISCSGSSSNIGSNYVIWYQQLPGTAPKLLIYDDTNRPSGVPDRFSGSKSGTSASLAITGLQSEDEADYYCSTYDNYQAGWVFGGGTKLTVLG | 11.2
